# combination Emax per entry
test system: COR-L23 (Non-Small Cell Lung Carcinoma); assay: combination Emax (second highest fraction inhibited in the dose matrix, 72 h); higher = more inhibition; extreme values may be limits of the assay
Endpoint label: combination Emax

# Compound, Reported result
measured = [
    ("NC1(C(=O)N[C@@H](CCO)c2ccc(Cl)cc2)CCN(c2ncnc3[nH]ccc23)CC1 [Capivasertib] + CCN(CCO)CCCOc1ccc2c(Nc3cc(CC(=O)Nc4cccc(F)c4)[nH]n3)ncnc2c1 [AZD2811] (first compound max 10 µM, 7x7, partner max 1 µM)", 0.474),
    ("CC1(C)CCC(CN2CCN(c3ccc(C(=O)NS(=O)(=O)c4ccc(NCC5CCOCC5)c([N+](=O)[O-])c4)c(Oc4cnc5[nH]ccc5c4)c3)CC2)=C(c2ccc(Cl)cc2)C1 [Venetoclax] + C[C@@H](Nc1cc(F)cc(F)c1)c1cc(C(=O)N(C)C)cc2c(=O)cc(N3CCOCC3)oc12 [AZD8186] (first compound max 1 µM, 7x7, partner max 3 µM)", 0.054),
    ("CN(CCO)CC[C@H](CSc1ccccc1)Nc1ccc(S(=O)(=O)NC(=O)c2ccc(N3CCC([C@@H](O)c4ccccc4-c4ccc(Cl)cc4)CC3)cc2)cc1S(=O)(=O)C(F)(F)F [AZD4320] + C[C@@H]1COCCN1C2=NC(=NC(=C2)C3(CC3)[S@](=N)(=O)C)C4=C5C=CNC5=NC=C4 [AZD6738] (first compound max 1 µM, 7x7, partner max 10 µM)", 0.621),
    ("CN(CCO)CC[C@H](CSc1ccccc1)Nc1ccc(S(=O)(=O)NC(=O)c2ccc(N3CCC([C@@H](O)c4ccccc4-c4ccc(Cl)cc4)CC3)cc2)cc1S(=O)(=O)C(F)(F)F [AZD4320] + Cn1cnc2c(F)c(Nc3ccc(Br)cc3Cl)c(C(=O)NOCCO)cc21 [Selumetinib] (first compound max 1 µM, 7x7, partner max 3 µM)", 0.442),
]

* * *

# Bliss excess per entry
system: HT-29 (Colorectal Carcinoma); assay: Bliss excess, mean over the matrix (fraction); higher = more synergy

# Compound, Target system, Bliss excess
records = [
    ("Cc1cc2ncnn2cc1Nc1ncc2c(n1)n(C1CCOCC1)c(=O)n2C [AZD7648] + O=C(c1cc(Cc2n[nH]c(=O)c3ccccc23)ccc1F)N1CCN(C(=O)C2CC2)CC1 [Olaparib] (first compound max 10 µM, 7x7, partner max 10 µM)", "HT-29 (Colorectal Carcinoma)", -0.0265),
    ("CCN(CCO)CCCOc1ccc2c(Nc3cc(CC(=O)Nc4cccc(F)c4)[nH]n3)ncnc2c1 [AZD2811] + C=CCn1c(=O)c2cnc(Nc3ccc(N4CCN(C)CC4)cc3)nc2n1-c1cccc(C(C)(C)O)n1 [AZD1775] (first compound max 1 µM, partner max 1 µM)", "HT-29 (Colorectal Carcinoma)", -0.0446),
    ("CN(CCO)CC[C@H](CSc1ccccc1)Nc1ccc(S(=O)(=O)NC(=O)c2ccc(N3CCC([C@@H](O)c4ccccc4-c4ccc(Cl)cc4)CC3)cc2)cc1S(=O)(=O)C(F)(F)F [AZD4320] + Cc1cc2ncnn2cc1Nc1ncc2c(n1)n(C1CCOCC1)c(=O)n2C [AZD7648] (first compound max 1 µM, 7x7, partner max 10 µM)", "HT-29 (Colorectal Carcinoma)", -0.0293),
    ("CN(C)CCCOc1ccc(-c2ccc3ncc4c(c3c2)n(C2CCOCC2)c(=O)n4C)cn1 [AZD0156] + C=CCn1c(=O)c2cnc(Nc3ccc(N4CCN(C)CC4)cc3)nc2n1-c1cccc(C(C)(C)O)n1 [AZD1775] (first compound max 1 µM, partner max 1 µM)", "HT-29 (Colorectal Carcinoma)", -0.0411),
]

* * *

test system: HCC2157 (Breast Carcinoma); assay: Bliss excess, mean over the matrix (fraction); higher = more synergy

# Molecule, Bliss excess
records = [
    ("Cn1cnc2c(F)c(Nc3ccc(Br)cc3Cl)c(C(=O)NOCCO)cc21 [Selumetinib] + C=CCn1c(=O)c2cnc(Nc3ccc(N4CCN(C)CC4)cc3)nc2n1-c1cccc(C(C)(C)O)n1 [AZD1775] (first compound max 10 µM, partner max 1 µM)", 0.0111),
    ("CC(=O)c1c(C)c2cnc(Nc3ccc(N4CCNCC4)cn3)nc2n(C2CCCC2)c1=O [Palbociclib] + Cn1cnc2c(F)c(Nc3ccc(Br)cc3Cl)c(C(=O)NOCCO)cc21 [Selumetinib] (first compound max 10 µM, 7x7, partner max 10 µM)", -0.036),
    ("CN(CCO)CC[C@H](CSc1ccccc1)Nc1ccc(S(=O)(=O)NC(=O)c2ccc(N3CCC([C@@H](O)c4ccccc4-c4ccc(Cl)cc4)CC3)cc2)cc1S(=O)(=O)C(F)(F)F [AZD4320] + C[C@@H]1COCCN1C2=NC(=NC(=C2)C3(CC3)[S@](=N)(=O)C)C4=C5C=CNC5=NC=C4 [AZD6738] (first compound max 1 µM, 7x7, partner max 10 µM)", 0.0014),
]

* * *

test system: G-292-Clone-A141B1 (Osteosarcoma); assay: Bliss excess, mean over the matrix (fraction); higher = more synergy
Respond with satisfied for Bliss excess values of -0.04 and above, not satisfied for values below.

# Compound, Target system, Category label
measured = [
    ("CS(=O)(=O)CCNCc1ccc(-c2ccc3ncnc(Nc4ccc(OCc5cccc(F)c5)c(Cl)c4)c3c2)o1 [Lapatinib] + Cn1cnc2c(F)c(Nc3ccc(Br)cc3Cl)c(C(=O)NOCCO)cc21 [Selumetinib] (first compound max 10 µM, 7x7, partner max 10 µM)", "G-292-Clone-A141B1 (Osteosarcoma)", "not satisfied"),
    ("C[C@@H](Oc1cc(-c2cnn(C3CCNCC3)c2)cnc1N)c1c(Cl)ccc(F)c1Cl [Crizotinib] + Cn1cnc2c(F)c(Nc3ccc(Br)cc3Cl)c(C(=O)NOCCO)cc21 [Selumetinib] (first compound max 10 µM, 7x7, partner max 10 µM)", "G-292-Clone-A141B1 (Osteosarcoma)", "satisfied"),
    ("NC1(C(=O)N[C@@H](CCO)c2ccc(Cl)cc2)CCN(c2ncnc3[nH]ccc23)CC1 [Capivasertib] + COc1nnc2ccc(N3CCC(c4ccc(OCCN5CCN(C)C(=O)[C@H]5C)cc4)CC3)nn12 [AZD5153] (first compound max 10 µM, 7x7, partner max 1 µM)", "G-292-Clone-A141B1 (Osteosarcoma)", "satisfied"),
    ("Cc1nc(-c2cn3c(n2)-c2ccc(-c4cnn(C(C)(C)C(N)=O)c4)cc2OCC3)n(C(C)C)n1 [Taselisib] + O=C(Nc1ccc2[nH]nc(-c3ccncc3)c2c1)[C@@H]1CCN(CC(=O)N2CCN(c3ccc(-c4ncccn4)cc3)CC2)C1 [SCH772984] (first compound max 10 µM, 7x7, partner max 5 µM)", "G-292-Clone-A141B1 (Osteosarcoma)", "satisfied"),
    ("O=C(c1cc(Cc2n[nH]c(=O)c3ccccc23)ccc1F)N1CCN(C(=O)C2CC2)CC1 [Olaparib] + Cc1c2c(nn1C)CSCc1cc(n(C)n1)CSc1cc(c3ccccc3c1)OCCCc1c(C(=O)O)n(C)c3c-2c(Cl)ccc13 [AZD5991] (first compound max 10 µM, 7x7, partner max 1 µM)", "G-292-Clone-A141B1 (Osteosarcoma)", "not satisfied"),
    ("CN(CCO)CC[C@H](CSc1ccccc1)Nc1ccc(S(=O)(=O)NC(=O)c2ccc(N3CCC([C@@H](O)c4ccccc4-c4ccc(Cl)cc4)CC3)cc2)cc1S(=O)(=O)C(F)(F)F [AZD4320] + CCN(CCO)CCCOc1ccc2c(Nc3cc(CC(=O)Nc4cccc(F)c4)[nH]n3)ncnc2c1 [AZD2811] (first compound max 1 µM, 7x7, partner max 1 µM)", "G-292-Clone-A141B1 (Osteosarcoma)", "satisfied"),
    ("NC1(C(=O)N[C@@H](CCO)c2ccc(Cl)cc2)CCN(c2ncnc3[nH]ccc23)CC1 [Capivasertib] + CC(C)n1c(=O)n(C)c2cnc3cc(F)c(-c4ccc(OCCCN5CCCCC5)nc4)cc3c21 [AZD1390] (first compound max 10 µM, 7x7, partner max 0.3 µM)", "G-292-Clone-A141B1 (Osteosarcoma)", "not satisfied"),
    ("CN(CCO)CC[C@H](CSc1ccccc1)Nc1ccc(S(=O)(=O)NC(=O)c2ccc(N3CCC([C@@H](O)c4ccccc4-c4ccc(Cl)cc4)CC3)cc2)cc1S(=O)(=O)C(F)(F)F [AZD4320] + C1CN(CCC1(C(=O)N[C@@H](CCO)C2=CC=C(C=C2)Cl)N)C3=NC=NC4=C3C=CN4 [Capivasertib] (first compound max 1 µM, 7x7, partner max 3 µM)", "G-292-Clone-A141B1 (Osteosarcoma)", "satisfied"),
    ("Cn1cnc2c(F)c(Nc3ccc(Br)cc3Cl)c(C(=O)NOCCO)cc21 [Selumetinib] + CCN(CCO)CCCOc1ccc2c(Nc3cc(CC(=O)Nc4cccc(F)c4)[nH]n3)ncnc2c1 [AZD2811] (first compound max 10 µM, 7x7, partner max 1 µM)", "G-292-Clone-A141B1 (Osteosarcoma)", "satisfied"),
    ("COc1nnc2ccc(N3CCC(c4ccc(OCCN5CCN(C)C(=O)[C@H]5C)cc4)CC3)nn12 [AZD5153] + C=CCn1c(=O)c2cnc(Nc3ccc(N4CCN(C)CC4)cc3)nc2n1-c1cccc(C(C)(C)O)n1 [AZD1775] (first compound max 1 µM, partner max 1 µM)", "G-292-Clone-A141B1 (Osteosarcoma)", "not satisfied"),
    ("CN(C)CCCOc1ccc(-c2ccc3ncc4c(c3c2)n(C2CCOCC2)c(=O)n4C)cn1 [AZD0156] + CCN(CCO)CCCOc1ccc2c(Nc3cc(CC(=O)Nc4cccc(F)c4)[nH]n3)ncnc2c1 [AZD2811] (first compound max 1 µM, 7x7, partner max 1 µM)", "G-292-Clone-A141B1 (Osteosarcoma)", "not satisfied"),
    ("N#Cc1cnc(Nc2cc(NC[C@H]3CNCCO3)c(C(F)(F)F)cn2)cn1 [SRA737] + CCc1c2c(nc3ccc(O)cc13)-c1cc3c(c(=O)n1C2)COC(=O)[C@]3(O)CC [SN-38] (first compound max 10 µM, 7x7, partner max 0.3 µM)", "G-292-Clone-A141B1 (Osteosarcoma)", "satisfied"),
    ("Cc1c2c(nn1C)CSCc1cc(n(C)n1)CSc1cc(c3ccccc3c1)OCCCc1c(C(=O)O)n(C)c3c-2c(Cl)ccc13 [AZD5991] + C[C@@H](Nc1cc(F)cc(F)c1)c1cc(C(=O)N(C)C)cc2c(=O)cc(N3CCOCC3)oc12 [AZD8186] (first compound max 1 µM, 7x7, partner max 3 µM)", "G-292-Clone-A141B1 (Osteosarcoma)", "satisfied"),
    ("COc1cc2ncnc(Nc3ccc(F)c(Cl)c3)c2cc1OCCCN1CCOCC1 [Gefitinib] + CC(C)n1c(=O)n(C)c2cnc3cc(F)c(-c4ccc(OCCCN5CCCCC5)nc4)cc3c21 [AZD1390] (first compound max 10 µM, 7x7, partner max 0.3 µM)", "G-292-Clone-A141B1 (Osteosarcoma)", "not satisfied"),
]
